B1: HDV Ribozyme (parent)
chain: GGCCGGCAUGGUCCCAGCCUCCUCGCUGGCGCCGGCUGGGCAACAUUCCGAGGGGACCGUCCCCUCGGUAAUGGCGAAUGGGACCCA

Variants of: B1
Test: self-cleavage, relative activity (ratio to wild type); higher = more cleavage; co-transcriptional
Category scheme (self-cleavage): c1: < 0.1; c2: ≥ 0.1 and < 0.4; c3: ≥ 0.4

| mutations | labelClass |
| --- | --- |
| C32U U46C | c3 |
| G29U C48A | c2 |
| G39C A56U | c2 |
| U65A G73C | c3 |
| C19U A71G | c2 |

[in] Note: place this variant into its band. Item: G34U C84U
[out] c2

[in] Would you mind sorting G28U C84U into the appropriate category?
[out] c1

[in] For this variant, which bin applies? U37A A56C
[out] c2

[in] Lab note: sort G40U G50A into the matching self-cleavage band.
[out] c3
